Tested on: MOLT-4
Experiment: NCI tumour cell line growth inhibition, 48 h
The source made the active and inactive calls. Cut-off read from the data, not from the text of the source: active = GI50 up to about 1.1 µM and inactive = higher.
Measurement label: GI50

| Compound | Result |
| --- | --- |
| CN(C)c1ccc(N=O)c(O)c1.CN(C)c1ccc(N=O)c(O)c1.[SiH4] | 11.5 µM (inactive) |
| Cc1cc(CN(Cc2ccccc2)Cc2nc3ccccc3[nH]2)c(O)c(CN(Cc2nc3ccccc3[nH]2)Cc2nc3ccccc3[nH]2)c1 | 4.26 µM (inactive) |
| CN1CC[C@]2(C)c3ccc(O)cc3CC3CCCC1C32C (stereo partly specified) | > 100 µM (inactive) |
| O=C1CCCCC1CN1CCCC1 (stereo unspecified) | > 100 µM (inactive) |
| COc1cc2c(c(OC)c1OC)-c1[nH]ncc1CC2 | > 100 µM (inactive) |

Data request, read-out GI50, for Nc1ccc(C(=O)NN2C(=O)C(Cl)C2c2ccccc2)cc1 (stereo unspecified)
> 100 µM (inactive)

Data request, read-out GI50, for O=C(/C=C/CC(O)(c1ccccc1)c1ccccc1)Nc1ccccc1Cl
> 100 µM (inactive)

Data request, read-out GI50, for CC(C)(C)c1cc2c(O)c(c1)COCc1cc(C(C)(C)C)cc(c1O)COCc1cc(C(C)(C)C)cc(c1O)COC2
48 µM (inactive)

Data request, read-out GI50, for CC1(CCOCc2ccccc2)NC(=O)NC1=O (stereo unspecified)
> 100 µM (inactive)

Data request, read-out GI50, for CCOC1=C(c2ccccc2)N2CCCCC2O1 (stereo unspecified)
4.27 µM (inactive)

Data request, read-out GI50, for Cn1/c(=N\c2ccccc2[N+](=O)[O-])sc2ccccc21
> 100 µM (inactive)

* * *

Tested on: SK-MEL-5
Test: NCI tumour cell line growth inhibition, 48 h
The source made the active and inactive calls. Rule as the data show it: active = GI50 up to about 1.1 µM and inactive = higher.
Outcome (select one): YES (active), NO (inactive)

Solved cases (3 shown):
| Compound | Class |
| --- | --- |
| CC(=O)C1C(=O)C(=O)N(c2ccc(Br)cc2)C1=O (stereo not given) | NO |
| CC(=O)Nc1ccc2c(c1)/C(=N/c1ccc(C(=O)O)cc1)c1ccccc1-2 | NO |
| COC(=O)C1=C(SC)SC2(C(=O)OC)C3C=C(C)C4C(N13)C42C(=O)OC (stereo not given) | NO |

Status in this test for COc1ccc(NC(=O)/C(O)=C/C(=O)c2ccccc2)cc1 ?
NO

Status in this test for NC1C2C=CC(C2)C1C(=O)O (stereo not given) ?
NO

Status in this test for Cc1ccc(Sc2cc([N+](=O)[O-])cc(Sc3ccc(C)cc3)c2Sc2ccc(C)cc2)cc1 ?
NO

Status in this test for CCOc1cc(NC(C)=O)ccc1C(=O)NN1C(=O)/C(=C/c2ccco2)N=C1c1ccccc1 ?
NO

Status in this test for Cc1c(F)c(NC(=O)CN(C)C)c2c(=O)cc(-c3ccc(NC(=O)CN(C)C)c(F)c3)oc2c1F ?
NO

Status in this test for CC1(CCOCc2ccccc2)NC(=O)NC1=O (stereo not given) ?
NO

Status in this test for C=C1CC(OC)(C(O)C(=O)N[C@H]2OCO[C@H]3C2O[C@H](C[C@@H](CO)OC)C(C)(C)C3OC)O[C@H](C)[C@@H]1C (stereo not given in full) ?
YES

* * *

System: SNB-75
Experiment: NCI tumour cell line growth inhibition, 48 h
The source made the active and inactive calls. Cut-off read from the data, not from the text of the source: active = GI50 up to about 1.1 µM and inactive = higher.
Measurement label: GI50

| Compound | Result |
| --- | --- |
| Nc1nc(Cl)cc(NCC2(O)CCCC2)n1 | > 100 µM (inactive) |

Data request, read-out GI50, for Cc1ccnc2c1c(=O)c1ccccc1n2C
17.6 µM (inactive)

Data request, read-out GI50, for COc1cc2c(cc1Oc1c(Oc3c(O)c(OC)cc4c3C(CC(C)C)N(C)CC4)c(OC)cc3c1C(CC(C)C)N(C)CC3)C(CC(C)C)N(C)CC2 (configuration not stated)
0.611 µM (active)

Data request, read-out GI50, for O=C1/C(=C/c2ccc(OC(=O)c3ccccc3)cc2)CCC/C1=C\c1ccc(OC(=O)c2ccccc2)cc1
93.3 µM (inactive)

Data request, read-out GI50, for CCc1nc2ccc(/N=N/N(C)C)cc2[nH]1
> 100 µM (inactive)

Data request, read-out GI50, for CCCCCCC(=O)C/C(CCC(=O)N(Cc1ccccc1)Cc1ccccc1)=N\NC(N)=O
> 100 µM (inactive)

Data request, read-out GI50, for O=C1Nc2ccccc2/C1=N/N1C(=O)/C(=C/c2ccccc2S)N=C1c1ccccc1
> 100 µM (inactive)

* * *

Tested on: HCT-15
Measurement label: GI50 (µM)
Quick reminder: number only, in µM, skip the unit.

| Compound | Experimental target | Units text | GI50 |
| --- | --- | --- | --- |
| CC(C(=O)N1C(=O)N(C(=O)[C@H](C)C(O)c2ccccc2)[C@H](c2ccccc2)[C@H]1c1ccccc1)[C@@H](O)c1ccccc1 (stereo not given in full) | HCT-15 | µM | 45.7 |
| Cc1c(F)c(NC(=O)CN(C)C)c2c(=O)cc(-c3ccc(NC(=O)CN(C)C)c(F)c3)oc2c1F | HCT-15 | µM | 14.5 |

Data request, read-out GI50, for COC(=O)C(CCC(=O)CCl)N1C(=O)c2ccccc2C1=O (stereo not given)
4.25

Data request, read-out GI50, for COc1ccc([N+](=O)[O-])cc1[I+]c1cc([N+](=O)[O-])ccc1OC
41.1

* * *

Listing: GI50 of selected compounds
Test system: OVCAR-4
Experiment: NCI tumour cell line growth inhibition, 48 h
Activity calls are given as the source filed them. Rule as the data show it: active = GI50 up to about 1.1 µM and inactive = higher.

| Compound | GI50 |
| --- | --- |
| O=C(/C(=N\Nc1ccc([N+](=O)[O-])cc1[N+](=O)[O-])NC12CC3CC(CC(C3)C1)C2)C(Br)C(=O)c1ccccc1 (configuration not stated) | 2.77 µM (inactive) |

Data request, read-out GI50, for CSc1[nH]nc(N)c1C(=O)Nc1ccc(Cl)cc1
50.5 µM (inactive)

Data request, read-out GI50, for O=C1c2ccccc2-c2c1c(-c1ccc([N+](=O)[O-])cc1)nc1ccc3ccccc3c21
> 100 µM (inactive)

* * *

Test system: EKVX
Assay: NCI tumour cell line growth inhibition, 48 h
The source made the active and inactive calls. Rule as the data show it: active = GI50 up to about 1.1 µM and inactive = higher.
Listing: GI50 of selected compounds

| Compound | GI50 |
| --- | --- |
| CCC1CN2CCc3cc(OC)c(OC)cc3C2CC1CC1c2cc(OC)c(OC)cc2CCN1C(=O)C1CCCN1C(=O)OCc1ccccc1 (configuration not stated) | 22.7 µM (inactive) |
| O=S1(=O)c2ccccc2N(c2ccccc2)c2nnnn21 | 33 µM (inactive) |
| CCOc1ccccc1NC(=O)C(=O)CC(=O)c1sc(Nc2nnc(-c3ccc(Cl)c(Cl)c3)o2)nc1C | > 100 µM (inactive) |
| NC(c1ccccc1)(C(F)(F)F)P1(=O)OC(=O)c2ccccc2O1 (configuration not stated) | > 100 µM (inactive) |
| CC1(C)N/C(=C\[N+](=O)[O-])C(C)(C)N1O | > 10 µM (inactive) |

Data request, read-out GI50, for COC1=CC(O)(CC(N)=O)c2ccccc2C1=O (configuration not stated)
> 100 µM (inactive)

Data request, read-out GI50, for N#Cc1c(-c2ccc(Cl)cc2)c2c(n(C3OC(CO)C(O)C(O)C3O)c1=S)CCCC2 (configuration not stated)
56.1 µM (inactive)

* * *

Tested on: MDA-MB-435
Experiment: NCI tumour cell line growth inhibition, 48 h
Activity calls are given as the source filed them. Cut-off read from the data, not from the text of the source: active = GI50 up to about 1.1 µM and inactive = higher.
Outcome (select one): true for active, false for inactive

Solved cases (8 shown):
| Compound | Experimental target | Class |
| --- | --- | --- |
| COc1ccc(/C(=N/OCCCC(=O)O)c2cccs2)cc1 | MDA-MB-435 | false |
| CC(C)(C)c1ccc2c(c1)C(=O)c1ccccc1C2=O | MDA-MB-435 | false |
| CCCCN(CCCC)CC(O)c1cc(-c2ccc(Cl)c(Cl)c2)nc2c(Cl)cc(Cl)cc12 (stereo not given) | MDA-MB-435 | false |
| COc1ccc2c(c1)CC[C@@H]1[C@@H]2CC[C@]2(C)C(=O)/C(=C/c3ccncc3)C[C@@H]12 | MDA-MB-435 | false |
| CN(C)Cc1cc(C(=O)/C=C/c2ccccc2Cl)cc(CN(C)C)c1O | MDA-MB-435 | false |
| CCOc1cc2c(cc1O)C(O)C[C@@H]1[C@@H]2CC[C@]2(C)[C@@H](O)CC[C@@H]12 (stereo not given in full) | MDA-MB-435 | true |
| O=S(=O)(Cc1cnc(O)nc1O)Cc1cnc(O)nc1O | MDA-MB-435 | false |
| O=C1C2CCCC2N1Cc1ccccc1 (stereo not given) | MDA-MB-435 | false |

Status in this test for O=c1c2ccccc2sc2c(CO)ccc(NCCN3CCCCC3)c12 ?
false

Status in this test for CC(=O)C1=C(C)N2C(=NC3=C(CCc4ccccc43)C2c2ccc(F)cc2)S1 (stereo not given) ?
false
